Test: label from the status in PepcDB records
property: protein production

Some solved entries appear below for comparison.
- SPINPYKDHMSVLKAYYAMNMEPNSDELLKISIAVGLPQEFVKEWFEQRKVYQYSNSR: not failed
- MYKEGACLYRNPLRSKSDVKDWRMEGGGQISFDDHSLHLSHVQDEAHFVFWCPETFPDGIIVTWDFSPIEQPGLCMLFFAAAGIRGEDLFDPSLRKRTGTYPEYHSGDINALHLSYFRRKYAEERAFRTCNLRKSRGFHLAAMGADPLPSPDDADSPYRMKLIKDKGYVHFSINGLPILEWMDDGSTYGPVLTKGKIGFRQMAPMKAVYRDFAVHQAVRR: not failed
- MSSNNINSIISKIQQKNTATVITVGNYKGGAGKTTNVVLLAYKLAKKGLKVCVLDLDPQSNATKSLLLTKSSLYQDEVVTIEKTLMTGISEKNLDGLEVKIMDNLYLLPSYIDFEDFPKYLYKNTSNQREEDYYLKNIFTPLQGKYDIVLIDVPPMSKAVTRNAVICSDYVLISLQTHERSLSGAESYVEELNKLHNEYDLDLEVVGVLPVIHKNNGSVDQYVMEVAKETFGEDNLFENVVPQMERIKRFDVNGITDKDRHDQKVLNLYDKVSDELLDRINYFEEEKEGAING: not failed
- MHCLIHVPELMNVKGIGGFENLCDLELLTSYLEEVDLIMTNHSTKRSSRSFKISRDHSTTRSSRAHHHFTSPLDPERSSNSITPLDCILDDKLQSLLHSALNQTLEHKEEKKIPAIHSSSHSTTLVEYSS: failed
- VSGFQRLQKPVVSQPDFRRQPVSETMQVYLKQAADPGRDVGLYWMATDFENRRFPGKVSPSGFQKLYRQWRNQTGWDAYVQSCRAIWNDVKYFPIPQSLDDTEDKISYVDSWMFERNYGGKRGHEGTDIMAEKNTPGYYPVVSMTDGVVTEKGWLEKGGWRIGITAPTGAYFYYAHLDSYAELEKGDPVKAGDLLGYMGDSGYGEEGTTGEFPVHLHLGIYLKEGTEEISVNPYPVLRYAENARIKCVYSR: not failed
- MGLVTDEVRARAEKYTGDEICREKTKEFLKEVSMPNGLLPLKDIEEVGYDRETGIVWLKQKKSITHKFEAIGKLVSYATEVIAQVEVGKIKKLTGVKAKELLIWVTLNELVLEQPTSSGKINFRTPTGLSRTFPVSAFVVPEVEKPATEKNNGTTEVKEAVAVTDA: failed

(Q) GET /values?readout=protein production&item= EDVKEFEREETQDKEESVESSLPLNAIEPCVICQGRPKNGCIVHGKTGHLMACFTCAKKLKKRNKPCPVCRQPIQMIVLTYFP
(A) failed

(Q) # iterate: MSLAMQDFRPGVYRHYKGDHYLALGLARADETDEVVVVYTRLYARAGLPMSTRLLRIWNETVDTGAGPQPRFAYVGHVTPEQGEGHHHHHH
(A) not failed

(Q) Try the sequence MNIPVEVEVAEVLTDSAATGIFEPGDKLLSIDGTAISTPGDAQTIVRSKAPGDEITISYERNDAESQATITLREHPLEHHHHHH
(A) failed

---

Assay: label from the status in PepcDB records
property: protein production

Solved entries:
* MDSGRLAVIALGGNAIAGPGMDVSVESQTAAVKRASSIIADVLADGWRSVITHGNGPQVGYLSEAFEALPPERPRQPLYIATAMTQAWIGLLLKHSLEEELRRRGLNVLVPVVISRVLVDVSDPSFNNPSKPVGPIYGREEAEELSRRYGWVFKRDPRGGFRRVVPSPRPVSIVDRDLIAEASAESPAVVALGGGGVPVVERPGGVLEPVEAVVDKDLASSLLATQLNADLLVILTDVPGVAVNYGREGERWLRRAAASELKKYLREGHFPPGSMGPKVEAAISFVERTGKPAVIGSLEEARQVLSLQAGTVVMLG | not failed
* MALPHVVSSPSSTSLSPSFKSKPPFHSLRSLSPTVDNRRRCKLNSSFRCSSSSFSEKHHNAKSPKSDDIVELPLFPLPLVLFPGAILPLQIFEFRYRIMMHTLLQSDLRFGVVYSDSVSGSAAEVGCVGEVVKHERLVDDRFFLVCKGQERFRVTNVVRTKPYLVGEVTWLEDRPSGEENLDSLANEVEVLMKEVIRLSNRLNGKAEKEVQDLRRNQFPTPFSFFVGSTFEGAPREQQALLELEDTAARLKRERETLRNTLNYLTAASAVKDVFPSSS | failed
* MASLGFNLGFTFSNAQIQQHRKVSGGGRARVISCNSSSSSSSQASSPQGISAVTPLEIELEFFGPKPGSDGSYPVDKAKAVSGDKLLRSIMQDNKIELYAAYGKVMNCGGGGSCGTCIVEILDGRDLLNERTDTENRYLKKKPESWRLACQTIVGNKENSGKSALDIGCRAADSTVEEVN | failed
* MAQQFIDIGANLTDDNYFGNYHGKHYHEEDIDVVLQRAERNGLSHIIITSGCLNDFKKAIEIINKYQNLTNIKLVTTIGVHPTRTNELKQEGYLDELLLLCEKNIDKVVAIGEIGLDYERLQFSDKETQLSGYRTLSILHQKYPYLPFFFHCRKSWSDLCQLNKELGYNGCKGVVHCFDGTEEEMNQILNEGWDIGVTGNSLQSIELLNVMKQIPIERLHIETDCPYCGIKKTSAGFKYLKEKDFGVKVEKYQRNKYVQRRNEPSNIIDIAIIMSSIKHISLFEFVNKVYSNSMNMYFPTMN | not failed

(Q) Please look up its protein production: MDVQIHPMIIELAAFQAAKCGSVVGFGMVPSRNPSIKAASFFGIMVVTRSHVGESKDKGKEVEIAEPIESLILWLEELVAKQNKAMMRPMSDMMGAISRSTSHKLHDEQSTRDWSLPRSSTSTDDRSGHPVYRRKNRYDQVRYDAHQHYGNLTRLGKIDISRLDGIGIKEWLFKVEEFFGVDFTLQI
(A) failed

(Q) Can you handle MLEVDVVRISVIVPIYNVKLYIERCVRSLMEQTLENIEFIFVNDCTPDDSMDILHYVLEEYPKRREQIKIIEHETNRGISAVRNTGLKNATGQYIIYCDSDDWVEKNMYEKLLVKALETSADIVGCDFFDDYVAHSTIRKQLFPQQSEKCVKKMLRGELHCGTWNKLVIKSLYERTKIDFPEGINMWEDVSTIIPLCFHATKIDYIPEALYHYIHHNVSSYTYSVTEKSLENLVASIQLLESFFLTNQCFKTFGEDLCFMKLTVKLNLLLGSKGELQKKRNMLYSSANRYIFSYSGMSWYWKIALWVASKKMLFCFNVMSCIERIIKKWKLEHHHHHH next?
(A) failed

Where these numbers come from: a protein production outcome set (Wang et al. 2014)
